# ASSAY_TARGET: RORγ ligand binding domain (LBD) (Homo sapiens)
# Construct: made in house; host or cells: E. coli BL-21 (BL3), vector pDEST15
# Sequence (P51449 269-508 limits assumed): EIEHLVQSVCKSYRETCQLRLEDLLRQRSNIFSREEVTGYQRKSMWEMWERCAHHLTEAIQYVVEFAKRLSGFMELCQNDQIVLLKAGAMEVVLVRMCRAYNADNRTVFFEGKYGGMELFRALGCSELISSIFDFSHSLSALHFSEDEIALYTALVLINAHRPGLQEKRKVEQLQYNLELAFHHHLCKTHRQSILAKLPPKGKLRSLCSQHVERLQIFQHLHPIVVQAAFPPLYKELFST
# EXPERIMENT_NOTES: TR-FRET Activity Assay (ligand sensing, RORγ-LBD / coactivator peptide interaction)
# Format: biochemical
# CONDITION_CONTEXT: read-out: RORγ activity in the TR-FRET Activity Assay (IC50 FRET), Group
pIC50: −log10 of the molar value.
ASSAY_READOUT: pIC50

Example compounds with recorded pIC50:
> print(dat)
                                   molecule  assay.readout    meas.value
1  Cc1c(S(N)(=O)=O)c(C)n(CC2CCCCC2)c1-c1cc(C(C)(C)C)cc(C(C)(C)C)c1          pIC50  5.70 to 6.30
2  Cc1c(S(N)(=O)=O)cc(-c2cc(C(=O)NC(C)(C)C)cc(C(F)(F)F)c2)n1CC1CCCCC1          pIC50  5.70 to 6.30
3  Cc1c(S(N)(=O)=O)cc(-c2ccc(S(=O)(=O)N3CCCCC3(C)C)c(C(F)(F)F)c2)n1CC1CCCCC1          pIC50  5.70 to 6.30
4  Cc1c(S(N)(=O)=O)cc(-c2cc(C(C)(C)C)cc(C(C)(C)CN)c2)n1CC1CCCCC1          pIC50        < 5.70

For reference, reported pIC50 for `Cc1c(S(N)(=O)=O)cc(-c2cn(S(=O)(=O)c3ccccc3)c3ccccc23)n1CC1CCCCC1` stands at 5.70 to 6.30

For reference, reported pIC50 for `Cc1c(S(N)(=O)=O)cc(-c2cc(C(C)(C)C)cc(C(C)(C)C)c2)n1CC1CCCCCC1` stands at > 6.30

For reference, reported pIC50 for `Cc1c(S(=O)(=O)NC2CC2)cc(-c2cc(C(C)(C)C)cc(C(C)(C)C)c2)n1CC1CCCCC1` stands at > 6.30

For reference, reported pIC50 for `Cc1c(S(N)(=O)=O)cc(-c2cccc(S(=O)(=O)N(C)C(C)(C)C)c2)n1CC1CCCCC1` stands at < 5.70

For reference, reported pIC50 for `Cc1c(S(N)(=O)=O)cc(-c2cc(C(C)(C)C)cc(C(C)(C)C)c2)n1CC1CCC1` stands at 5.70 to 6.30

For reference, reported pIC50 for `Cc1c(S(N)(=O)=O)cc(-c2ccc(S(=O)(=O)N3CCC3(C)C)c(C(C)(C)C)c2)n1CC1CCCCC1` stands at > 6.30

For reference, reported pIC50 for `CC(C)(C)c1cc(-c2cc(S(N)(=O)=O)c(Br)n2CC2CCCCC2)cc(C(C)(C)C)c1` stands at > 6.30
